I'd be grateful if you could share measured IC50 for these entries.
- tested-system: UniProtKB P35498
- procedure-text: Sodium Influx Assay (Flux) NaV1.1
- measurement-parameters: Trex HEK293 cells, ANG2 dye, inhibition of sodium ion influx
Your answer is read as µM, so omit the unit and give the number.

Challenge: Tell us which IC50 value is on record for Cc1c(NCc2c(F)cccc2CN2C3CCC2CC3)cc(F)c(S(=O)(=O)Nc2ccon2)c1F
Response given: 17

Challenge: Tell us which IC50 value is on record for COc1ccc(F)c(CNc2cc(F)c(S(=O)(=O)Nc3cscn3)c(F)c2)c1CN(C)C(C)C
Response given: 27.5

Challenge: Tell us which IC50 value is on record for O=S(=O)(Nc1ccsn1)c1c(F)cc(NCc2c(F)cccc2CN2C3CCC2CC3)cc1F
Response given: 9.6

Challenge: Tell us which IC50 value is on record for O=S(=O)(Nc1ccsn1)c1ccc(NCc2c(F)cccc2CN2C3CCC2CC3)c(F)c1F [Example 13, 2,2,2-trifluoroacetate]
Response given: 23.7

Challenge: Tell us which IC50 value is on record for CC(C)Oc1ccc(F)c(CNc2cc(F)c(S(=O)(=O)Nc3cscn3)c(F)c2)c1CN(C)C(C)C
Response given: 28

Challenge: Tell us which IC50 value is on record for O=S(=O)(Nc1cscn1)c1ccc(NCc2c(F)cccc2CN2C3CCC2CC3)c(Cl)c1F [Example 6, 2,2,2-trifluoroacetate]
Response given: 5.23

Challenge: Tell us which IC50 value is on record for COc1ccc(F)c(CNc2cc(F)c(S(=O)(=O)Nc3cscn3)c(F)c2)c1CN1C2CCC1CC2 [Example 11, 2,2,2-trifluoroacetate]
Response given: 5.91

Challenge: Tell us which IC50 value is on record for Cc1c(NCc2c(F)cccc2CN2C3CCC2CC3)ccc(S(=O)(=O)Nc2cscn2)c1F [Example 7, 2,2,2-trifluoroacetate]
Response given: 7.44
